Assay: Lipophilicity (log P, octanol/water partition coefficient)
Conditions: octanol/water

Compound: CC1(C)O[C@@H]2C[C@H]3[C@@H]4CCC5=CC(=O)C=C[C@]5(C)[C@@]4(F)[C@@H](O)C[C@]3(C)[C@]2(C(=O)CO)O1 [Triamcinolone acetonide]
logP: 2.53

* * *

Test: Water solubility
Type: physicochemical
Details: water
Measurement Kind: solubility (µg/mL)

Compound: CCC(=O)O[C@]1(C(=O)SCF)[C@H](C)C[C@H]2[C@@H]3C[C@H](F)C4=CC(=O)C=C[C@]4(C)[C@@]3(F)[C@@H](O)C[C@@]21C [Fluticasone propionate]
Measurement Kind: solubility
Units Label: µg/mL
Recorded Number: 0.14

* * *

Tested on: VEGF-induced BRB and BAB breakdown in rabbit eye
Assay: Rabbit model of VEGF-induced BRB and BAB breakdown, scanning ocular fluorophotometry, aqueous steroid suspensions (Example 1)
Format: in vivo
Settings: rabbit eye, 1 mg (100 μl of 10 mg/ml suspension) intravitreal; VEGF one month thereafter; fluorophotometry 48 hrs after VEGF
Measurement Kind: inhibition of VEGF-induced BAB breakdown (iris leakage, anterior segment)

Molecule: CCC(=O)OCC(=O)[C@@]1(OC(=O)CC)[C@@H](C)C[C@H]2[C@@H]3CCC4=CC(=O)C=C[C@]4(C)[C@@]3(Cl)[C@@H](O)C[C@@]21C [Beclomethasone dipropionate, beclomethasone 17,21-dipropionate]
Result: no effect
--
Molecule: CCC(=O)O[C@]1(C(=O)SCF)[C@H](C)C[C@H]2[C@@H]3C[C@H](F)C4=CC(=O)C=C[C@]4(C)[C@@]3(F)[C@@H](O)C[C@@]21C [Fluticasone propionate]
Result: no effect
